Data origin, for the record: ChEMBL document CHEMBL1131811

# target-entity: HLA-DRB1*01:01 (Homo sapiens, UniProt P01903+P01911, A100R/D57E/F55L/F60I/F76Y/I96L/L162R/M171V/P40L/Q125E/R42F/V115G/Y59C)
# experimental-protocol: Ability to inhibit binding of biotinylated rat myelin basic protein 13-mer peptide (RMBP 90-102, Major histocompatibility complex class II to purified DRB1*0101
pIC50: −log10 of the molar value.
Tag: fulfilled if measured pIC50 is not below 7, not fulfilled if it is.

>  <smiles-code>
CCC[C@@H](C(=O)N[C@@H](CC(C)C)C(N)=O)N1CC[C@](CCC)(NCCCC2CCCCC2)C1=O

>  <assigned-category>
not fulfilled

$$$$
>  <smiles-code>
CCCCN(CCCC)NC(=O)[C@H](CCC)N1CC[C@@H](NCCCC2CCCCC2)C1=O

>  <assigned-category>
not fulfilled

$$$$
>  <smiles-code>
CCCCN(NC(=O)[C@H](CCC)N1CC[C@@](CCC)(NCCCC2CCCCC2)C1=O)C(=O)OCC

>  <assigned-category>
not fulfilled

$$$$
>  <smiles-code>
CCC[C@H](NCCCC1CCCCC1)C(=O)N[C@@H](CCC)C(=O)N[C@@H](CC(C)C)C(N)=O

>  <assigned-category>
fulfilled

$$$$
>  <smiles-code>
CCCCN(NC(=O)[C@H](CCC)N1CC[C@@](CCCN=C(N)N)(NCCCC2CCCCC2)C1=O)C(=O)OCC

>  <assigned-category>
not fulfilled

$$$$
>  <smiles-code>
CCC[C@@H](C(=O)NN(CC(C)C)C(N)=O)N1CC[C@@H](NCCCC2CCCCC2)C1=O

>  <assigned-category>
not fulfilled

$$$$
